Test system: EPHB4;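 also: KINOMEscan kinase panel screen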
experimental.context: concentration: 1 μM,replicates: in singlicate; n = 1
Listed next: entries and their corresponding %Inh.
Quick note: give the figure in %, leave out the unit.

compound: COc1cc2ncn(-c3cc(OCC4CCCCC4)c(C(N)=O)s3)c2cc1OC
measured: 8

// query Indicate the recorded %Inh value for this compound: O=C(Nc1cccc(C(F)(F)F)c1)c1cccc(Oc2ccc3nccn3n2)c1
// result 23

// query Please indicate %Inh recorded for CN(c1ccc2c(c1)nc(NCc1ccc(F)cc1)n2C)c1ccnc(Nc2ccc(CS(C)(=O)=O)cc2)n1.Cl
// result 0

// query Given CC(C(=O)NC1CCN(c2ccnc(Nc3ccc(F)cc3)n2)C1)c1ccc(Cl)cc1 (stereo not drawn) , respond with its %Inh.
// result 0

// query Identify the reported %Inh for the following entry. O=C(NCC1CC1)c1ccc(-c2cc(C(=O)NC3CC3)ccc2F)cc1
// result 0

// query Output %Inh of Cc1cccc2c(-c3ccncc3)c(-c3ccc(F)cc3)nn12.Cl
// result 0

// query Look up %Inh of COc1cc2nccc(Nc3ccc(Oc4ccccc4)cc3)c2cc1OC.Cl and report it.
// result 3

// query Return reported %Inh. Input compound: Cc1n[nH]c2cc(Nc3ccnc(Nc4cccc(CN5CCOCC5)c4)n3)ccc12
// result 11

// query Provide only the value of recorded %Inh for CC(=O)Nc1nc2cnc(Nc3cc(NC(=O)c4cccc(CC(C)(C)C#N)c4)ccc3C)nc2s1
// result 37

// query Respond only with %Inh recorded for CSc1nccc(-c2c(-c3ccc(F)cc3)ncn2CCCN2CCOCC2)n1.Cl
// result 0

// query Could you please provide reported %Inh for COc1ccc(Nc2nccc(N3CCC(NC(=O)c4cccc(C#N)c4)C3)n2)cc1 (stereo not drawn) ? Thanks!
// result 0

// query Identify %Inh associated with the compound CC(C)S(=O)(=O)N1CCN(Cc2ccc3c(c2)nc(NC(=O)c2ccsc2)n3C[C@H](O)c2ccccc2)CC1
// result 14

// query Check the records and state %Inh for Cc1ccc2c(-c3ccnc(Nc4ccc(C(F)(F)F)cc4)n3)cnn2n1
// result 0

// query For the compound O=C1NCCc2[nH]c(-c3ccncc3)cc21 , give its reported %Inh.
// result 17

// query Supply recorded %Inh for Cc1ccn2nc(-c3ccc(F)cc3)c(-c3ccncc3)c2c1.Cl here.
// result 3

// query Return the recorded %Inh value; entry: Cn1ccc2ncnc(Oc3ccc(NC(=O)Nc4cccc(C(F)(F)F)c4)c(Cl)c3)c21
// result 64

// query Tell me its %Inh given NC(=O)c1ccc(-c2cc3ncnc(SCC(=O)O)c3s2)cc1 as the entry.
// result 1

// query Using known records, supply %Inh for CCn1c(-c2nonc2N)nc2cncc(Br)c21
// result 13

Where these numbers come from: paper PMC5540273
